I'd be grateful if you could share measured pEC50 for these entries.
# experimental target: ABCC6 WT (Homo sapiens)
# Sequence (O95255 whole entry): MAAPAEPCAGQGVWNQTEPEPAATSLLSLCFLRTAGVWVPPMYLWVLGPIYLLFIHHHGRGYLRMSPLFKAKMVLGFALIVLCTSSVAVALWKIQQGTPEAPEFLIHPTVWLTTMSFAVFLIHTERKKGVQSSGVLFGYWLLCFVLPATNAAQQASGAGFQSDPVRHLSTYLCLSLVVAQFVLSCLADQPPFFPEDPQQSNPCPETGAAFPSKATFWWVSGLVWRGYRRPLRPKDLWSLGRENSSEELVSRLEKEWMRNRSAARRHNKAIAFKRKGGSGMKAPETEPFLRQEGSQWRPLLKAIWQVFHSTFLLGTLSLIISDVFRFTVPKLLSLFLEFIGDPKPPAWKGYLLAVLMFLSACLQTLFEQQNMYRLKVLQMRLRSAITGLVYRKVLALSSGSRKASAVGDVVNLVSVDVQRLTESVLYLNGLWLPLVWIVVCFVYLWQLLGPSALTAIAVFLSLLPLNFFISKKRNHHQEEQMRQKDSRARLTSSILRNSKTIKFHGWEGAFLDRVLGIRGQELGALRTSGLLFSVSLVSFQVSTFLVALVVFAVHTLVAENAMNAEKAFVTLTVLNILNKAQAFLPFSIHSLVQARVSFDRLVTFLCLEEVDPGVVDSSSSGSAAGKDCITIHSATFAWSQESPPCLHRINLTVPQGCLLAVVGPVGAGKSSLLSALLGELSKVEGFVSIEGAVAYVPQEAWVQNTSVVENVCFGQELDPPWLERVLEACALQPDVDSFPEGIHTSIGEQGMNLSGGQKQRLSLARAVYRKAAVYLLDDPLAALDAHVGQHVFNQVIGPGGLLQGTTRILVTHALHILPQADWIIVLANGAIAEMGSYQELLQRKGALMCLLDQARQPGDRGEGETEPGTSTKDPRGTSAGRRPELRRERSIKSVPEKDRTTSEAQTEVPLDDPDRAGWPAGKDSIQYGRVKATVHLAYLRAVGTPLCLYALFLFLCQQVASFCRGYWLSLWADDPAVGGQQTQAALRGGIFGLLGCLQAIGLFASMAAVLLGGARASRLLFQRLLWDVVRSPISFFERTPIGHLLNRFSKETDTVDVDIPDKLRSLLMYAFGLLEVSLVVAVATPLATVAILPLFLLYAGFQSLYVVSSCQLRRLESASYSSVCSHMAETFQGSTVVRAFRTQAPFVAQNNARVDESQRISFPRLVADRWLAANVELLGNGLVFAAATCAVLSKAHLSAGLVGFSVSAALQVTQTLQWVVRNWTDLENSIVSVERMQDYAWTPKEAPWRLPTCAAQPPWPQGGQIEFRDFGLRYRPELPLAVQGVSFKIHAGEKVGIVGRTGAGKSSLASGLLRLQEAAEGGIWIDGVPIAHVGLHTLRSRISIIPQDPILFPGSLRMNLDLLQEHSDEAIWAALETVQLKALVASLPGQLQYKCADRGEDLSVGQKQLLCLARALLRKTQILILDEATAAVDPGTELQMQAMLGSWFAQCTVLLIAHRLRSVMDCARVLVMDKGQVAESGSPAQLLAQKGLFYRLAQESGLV
# assay summary: ABCC6 WT assay: HiBit protein expression
# measurement context: HEK-293 cells transiently expressing HiBit-tagged ABCC6 WT; 24 h treatment; top concentration 20 μM; read-out: ABCC6 WT EC50, Emax
pEC50: −log10 of the molar value.

Record request: pEC50 value, item Cc1nc(Oc2nc(-c3cncc(C#N)c3)ccc2NS(C)(=O)=O)c(C)s1
> 6.00

Record request: pEC50 value, item Cc1cc(C)c(Oc2nc(N3C4CC3CN(C(=O)C3CC3)C4)ccc2NS(C)(=O)=O)c(C)c1
≤ 4.60

Record request: pEC50 value, item Cc1nn(C)c(C)c1Oc1nc(-c2cncc(C#N)c2)ccc1NS(C)(=O)=O
> 6.00

Record request: pEC50 value, item Cc1cc(C(F)(F)F)nc(C)c1Oc1nc(-c2cncc(C3COC3)c2)ccc1NS(C)(=O)=O
≤ 4.60

====

# experimental target: ABCB4 WT (Homo sapiens)
# Sequence (P21439 whole entry): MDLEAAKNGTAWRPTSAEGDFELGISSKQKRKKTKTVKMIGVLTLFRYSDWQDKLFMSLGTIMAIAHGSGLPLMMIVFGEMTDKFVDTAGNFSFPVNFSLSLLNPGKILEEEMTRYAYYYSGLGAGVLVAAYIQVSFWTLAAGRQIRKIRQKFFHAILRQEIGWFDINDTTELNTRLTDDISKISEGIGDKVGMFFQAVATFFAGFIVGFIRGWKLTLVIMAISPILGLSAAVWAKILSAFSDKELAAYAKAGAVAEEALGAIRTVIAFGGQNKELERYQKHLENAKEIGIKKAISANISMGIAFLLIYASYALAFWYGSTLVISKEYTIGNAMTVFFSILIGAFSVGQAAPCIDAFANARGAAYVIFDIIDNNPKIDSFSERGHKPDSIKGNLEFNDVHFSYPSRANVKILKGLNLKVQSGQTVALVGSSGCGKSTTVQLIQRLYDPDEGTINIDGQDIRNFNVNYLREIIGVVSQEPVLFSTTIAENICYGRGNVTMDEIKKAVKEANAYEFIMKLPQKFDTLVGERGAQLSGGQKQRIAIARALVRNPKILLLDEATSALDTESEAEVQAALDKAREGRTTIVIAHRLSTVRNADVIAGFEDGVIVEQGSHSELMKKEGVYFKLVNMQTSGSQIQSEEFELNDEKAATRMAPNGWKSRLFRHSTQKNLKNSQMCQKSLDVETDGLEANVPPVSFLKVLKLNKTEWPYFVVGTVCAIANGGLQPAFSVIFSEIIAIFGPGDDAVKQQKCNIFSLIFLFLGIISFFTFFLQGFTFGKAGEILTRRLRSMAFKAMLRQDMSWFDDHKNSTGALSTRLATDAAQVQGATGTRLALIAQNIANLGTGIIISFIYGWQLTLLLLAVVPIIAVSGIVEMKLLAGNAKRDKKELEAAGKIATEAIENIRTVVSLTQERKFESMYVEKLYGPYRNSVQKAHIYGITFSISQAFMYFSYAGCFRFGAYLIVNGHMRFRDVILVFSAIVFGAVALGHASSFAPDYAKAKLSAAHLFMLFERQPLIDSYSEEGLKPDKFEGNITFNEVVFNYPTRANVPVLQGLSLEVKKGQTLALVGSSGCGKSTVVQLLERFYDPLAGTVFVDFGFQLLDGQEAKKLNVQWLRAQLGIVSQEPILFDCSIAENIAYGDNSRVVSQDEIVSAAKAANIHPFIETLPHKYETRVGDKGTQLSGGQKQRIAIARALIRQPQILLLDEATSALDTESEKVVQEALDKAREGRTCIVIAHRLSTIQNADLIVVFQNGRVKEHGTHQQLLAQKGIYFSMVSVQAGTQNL
# assay summary: ABCB4 WT assay: HiBit protein expression
# measurement context: HEK-293 cells stably expressing HiBit-tagged ABCB4 WT; 24 h treatment; top concentration 30 μM; read-out: ABCB4 WT EC50, Emax
I'd be grateful if you could share measured EC50 for these entries.

Record request: EC50 value, item Cc1cc(C)c(Oc2nc(-c3cncc(C#N)c3)ccc2S(N)(=O)=O)c(C)n1 [Compound I-258]
< 25000 nM

Record request: EC50 value, item Cc1cc(C)c(Oc2nc(-c3cncc(Cl)c3)ccc2NS(C)(=O)=O)c(C2CC2)n1 [Compound I-40]
< 1000 nM

Record request: EC50 value, item Cc1cc(C)c(Oc2nc(-c3cncc(Cl)c3)ccc2N2CCCS2(=O)=O)c(C)c1 [Compound I-67]
1000 to 10000 nM

Record request: EC50 value, item Cc1cc(C(F)F)nc(C)c1Oc1nc(-c2cncc(C3COC3)c2)ccc1NS(C)(=O)=O [Compound I-197]
< 1000 nM

Record request: EC50 value, item Cc1cc(C)c(Oc2nc(-c3cncc(C#N)c3)ccc2NS(C)(=O)=O)c(OC2CC2)n1 [Compound I-176]
< 1000 nM

Record request: EC50 value, item Cc1cc(C)c(Oc2nc(-c3cnc(C#N)c(Cl)c3)ccc2NS(C)(=O)=O)c(C)n1 [Compound I-8]
< 1000 nM

Record request: EC50 value, item Cc1cc(C)c(Oc2nc(-c3cncc(Cl)c3)ccc2N(C2CC2)S(C)(=O)=O)c(C)c1 [Compound I-42]
≥ 25000 nM

Record request: EC50 value, item Cc1nc(C(F)F)nc(C2CC2)c1Oc1nc(-c2cncc(C#N)c2)ccc1NS(C)(=O)=O [Compound I-144]
< 1000 nM

====

I'd be grateful if you could share measured EC50 for these entries.
# experimental target: ABCD2 WT (Homo sapiens, UniProt Q9UBJ2)
# Sequence (Q9UBJ2 whole entry): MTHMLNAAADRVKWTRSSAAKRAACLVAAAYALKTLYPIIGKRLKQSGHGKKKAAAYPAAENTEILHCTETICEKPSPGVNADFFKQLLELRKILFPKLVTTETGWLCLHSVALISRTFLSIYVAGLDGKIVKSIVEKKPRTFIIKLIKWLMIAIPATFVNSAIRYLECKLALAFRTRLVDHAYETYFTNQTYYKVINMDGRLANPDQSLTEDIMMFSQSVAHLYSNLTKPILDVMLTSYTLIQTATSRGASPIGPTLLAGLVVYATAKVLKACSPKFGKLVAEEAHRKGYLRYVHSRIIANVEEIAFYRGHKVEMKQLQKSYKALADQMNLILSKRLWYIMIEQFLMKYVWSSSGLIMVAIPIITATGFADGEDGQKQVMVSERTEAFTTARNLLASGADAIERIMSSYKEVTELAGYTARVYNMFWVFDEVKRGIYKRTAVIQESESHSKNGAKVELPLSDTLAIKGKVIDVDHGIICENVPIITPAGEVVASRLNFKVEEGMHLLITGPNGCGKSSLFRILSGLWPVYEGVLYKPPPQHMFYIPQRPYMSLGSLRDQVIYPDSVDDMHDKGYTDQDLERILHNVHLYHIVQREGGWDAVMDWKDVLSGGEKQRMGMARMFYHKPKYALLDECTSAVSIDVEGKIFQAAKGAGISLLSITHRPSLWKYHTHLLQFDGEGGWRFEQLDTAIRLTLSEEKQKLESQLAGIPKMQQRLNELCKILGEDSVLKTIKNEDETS
# assay summary: D2 correction dose-response assay: ABCD2 WT HiBit protein expression
# measurement context: HEK-293/ABCD2 WT cells, 24 hours treatment, HiBit luminescence; class combines EC50 and Mean MaxAct (fold); read-out: ABCD2 WT EC50, Emax

Request - read-out EC50 | tested on ABCD2 WT (Homo sapiens, UniProt Q9UBJ2) | compound Cc1cc(C2CC2)nc(C)c1Oc1nc(-n2cnc(C#N)c2)ccc1NS(C)(=O)=O
< 1 µM

Request - read-out EC50 | tested on ABCD2 WT (Homo sapiens, UniProt Q9UBJ2) | compound Cc1cc(C)c(Oc2nc(-c3cncc(Cl)c3)ccc2S(=O)(=O)Nc2cnn(C)c2)c(C)c1
1 to 10 µM

Request - read-out EC50 | tested on ABCD2 WT (Homo sapiens, UniProt Q9UBJ2) | compound Cc1cc(C)c(Oc2nc(N3CC4CC3CN4C(=O)C3CC3)ccc2NS(C)(=O)=O)c(C)c1 (single isomer, unassigned) [Compound I-19]
> 25 µM

Request - read-out EC50 | tested on ABCD2 WT (Homo sapiens, UniProt Q9UBJ2) | compound Cc1cc(C)c(Oc2nc(-c3cccc(Cl)c3)ccc2S(N)(=O)=O)c(C)c1
> 25 µM

Request - read-out EC50 | tested on ABCD2 WT (Homo sapiens, UniProt Q9UBJ2) | compound Cc1cc(C)c(Oc2nc(N3CC4(CN(C(=O)C5CC5)C4)C3)ccc2NS(C)(=O)=O)c(C)c1
> 25 µM

Request - read-out EC50 | tested on ABCD2 WT (Homo sapiens, UniProt Q9UBJ2) | compound CCS(=O)(=O)Nc1ccc(-c2cncc(C#N)c2)nc1Oc1c(C)cc(C(F)(F)F)nc1C
< 1 µM

Request - read-out EC50 | tested on ABCD2 WT (Homo sapiens, UniProt Q9UBJ2) | compound Cc1cnc(Oc2nc(-c3cncc(C#N)c3)ccc2NS(C)(=O)=O)c(C)c1
> 25 µM

Request - read-out EC50 | tested on ABCD2 WT (Homo sapiens, UniProt Q9UBJ2) | compound Cc1cc(C)c(Oc2nc(-c3cncc(C#N)c3)ccc2NS(C)(=O)=O)c(C)c1
< 1 µM

Request - read-out EC50 | tested on ABCD2 WT (Homo sapiens, UniProt Q9UBJ2) | compound Cc1cc(C)c(Oc2nc(-c3cncc(Cl)c3)ccc2N(C)S(=O)(=O)c2cccnc2)c(C)c1
> 25 µM

Request - read-out EC50 | tested on ABCD2 WT (Homo sapiens, UniProt Q9UBJ2) | compound CNS(=O)(=O)c1ccc(N2CCN(C(=O)C3CC3)CC2)nc1Oc1c(C)cc(C)cc1C
1 to 10 µM

Request - read-out EC50 | tested on ABCD2 WT (Homo sapiens, UniProt Q9UBJ2) | compound Cc1cc(C(F)F)cc(C2CC2)c1Oc1nc(-c2cncc(C#N)c2)ccc1S(=N)(=O)C1CC1 (stereo not drawn)
1 to 10 µM

Request - read-out EC50 | tested on ABCD2 WT (Homo sapiens, UniProt Q9UBJ2) | compound Cc1cc(C(F)F)nc(C)c1Oc1nc(-c2cncc(Cl)c2)ccc1NS(C)(=O)=O
> 25 µM

Request - read-out EC50 | tested on ABCD2 WT (Homo sapiens, UniProt Q9UBJ2) | compound Cc1cc(C2CCC2)nc(C)c1Oc1nc(-c2cncc(C#N)c2)ccc1NS(C)(=O)=O
> 25 µM

Request - read-out EC50 | tested on ABCD2 WT (Homo sapiens, UniProt Q9UBJ2) | compound Cc1cc(C)c(Oc2nc(-c3cncc(Cl)c3)cnc2NS(C)(=O)=O)c(C)c1
< 1 µM

Request - read-out EC50 | tested on ABCD2 WT (Homo sapiens, UniProt Q9UBJ2) | compound Cc1nc(C(F)(F)F)nc(C2CC2)c1Oc1nc(-c2cncc(C#N)c2)ccc1S(=O)(=O)NC1CC1
1 to 10 µM
